readoutLabel: melting point

These recorded examples may help you get a feel for the data.
{"compound": "CC(=O)c1cccc(S(=O)(=O)C[N+](=O)[O-])c1", "melting point": "99 to 100 °C"}
{"compound": "COc1ccc2ccc(=O)[nH]c2c1", "melting point": "190 °C"}
{"compound": "COc1nc2cc(F)cc(CBr)c2nc1OC", "melting point": "122 to 125 °C"}
{"compound": "CC(C)(C)c1ccc(C(=O)Nc2cn3cc(-c4ccncc4)ccc3n2)cc1", "melting point": "293 to 294 °C"}
{"compound": "OC(c1cccc(-c2nnc(Nc3ccc(Cl)c(Cl)c3)s2)c1)c1cccc(C(F)(F)F)c1 (centres undefined)", "melting point": "191 to 192 °C"}
{"compound": "CCCCc1nc2ccccn2c(=O)c1-c1ccc(NC(=O)[C@@H]2CCCN2C(=O)OC(C)(C)C)cc1", "melting point": "179 to 187 °C"}
{"compound": "CCCCc1nc(Cl)c(C(=O)NC)n1Cc1ccc2oc(-c3ccccc3NS(=O)(=O)C(F)(F)F)c(Br)c2c1", "melting point": "89 to 92 °C"}
{"compound": "CC(=O)Nc1ccccc1Oc1ccc(C#N)c(C#N)c1", "melting point": "152 to 154 °C"}

Here is the next item to consider.
Name the recorded melting point for "COC(=O)Cc1c(OC)ccc2c1Oc1c(ccc(OC)c1C=NO)C2(C)C" .
234 to 236 °C
